Target: MAL^TIR (Homo sapiens, UniProt P58753)
Construct: MAL (residues 79–221); 6xHis; made in house; host or cells: E. coli BL21 (DE3)
Sequence (P58753 79-221): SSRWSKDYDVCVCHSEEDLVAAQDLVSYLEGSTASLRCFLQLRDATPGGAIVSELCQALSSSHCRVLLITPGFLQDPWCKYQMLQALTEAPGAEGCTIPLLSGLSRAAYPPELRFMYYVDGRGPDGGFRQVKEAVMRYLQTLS
Assay: T‐Surf phage library (P8 and P3) selection against MAL^TIR, four rounds, NGS read counts
Format: binding
Settings: P8 library, 4R selection against MAL, rank before grouping
RECORDED_METRIC: P8_MAL Rank (before)

Examples with answers:
INSERT INTO assay_data (residue_sequence, test_target, observed) VALUES
  ('AFLYNFFNDLTHPTIY', 'MAL^TIR (Homo sapiens, UniProt P58753)', 1890),
  ('WFYERLVSLIMRDNIV', 'MAL^TIR (Homo sapiens, UniProt P58753)', 1183),
  ('YFLQFLVFRRLGNEYV', 'MAL^TIR (Homo sapiens, UniProt P58753)', 1513),
  ('RNYVAYLFQALANTGI', 'MAL^TIR (Homo sapiens, UniProt P58753)', 2250),
  ('LFFWASLNKLLRSDGR', 'MAL^TIR (Homo sapiens, UniProt P58753)', 2065),
  ('QLIQQWIELQLRQLHL', 'MAL^TIR (Homo sapiens, UniProt P58753)', 2356);

[I] RNFVAHLFQALANKAI
[II] SFMLKFRTVLHHVHDV
Would you let me know which has the greater P8_MAL Rank (before) value, I or II ? Choose, then provide that item's label. I
(I: 2233, II: 1451)

[A] AFFWEQMRTVLGKPTT
[B] TFLYTFLINLTHPTNY
Param metric = P8_MAL Rank (before); output whichever of A , B has the minimum value. Give the chosen item's label as your response. A

[P] RNFVADLFQALADKGI
[Q] AFFLAQLKSVLGNPTT
Compare reported P8_MAL Rank (before) values for P and Q . Which is lower? Mark your answer with the label of the selected entry. Q

[a] RNFVAYLFQALANTSI
[b] WFLTAFRVAMEQVADT
Between a and b , whose measured P8_MAL Rank (before) reads higher? // caller expects the label of the chosen entry a
(a: 2212, b: 1359)

[a] TFLGHLYNALLRSDGR
[b] AFFCTQLKSVLGNPTI
Input pair: a , b . Output: entry with lower P8_MAL Rank (before). Kindly state the label of the option you pick. b
(b: 1588, a: 2590)
